- experimentalTarget: UniProtKB P42336
- Sequence (P42336 whole entry, looked up): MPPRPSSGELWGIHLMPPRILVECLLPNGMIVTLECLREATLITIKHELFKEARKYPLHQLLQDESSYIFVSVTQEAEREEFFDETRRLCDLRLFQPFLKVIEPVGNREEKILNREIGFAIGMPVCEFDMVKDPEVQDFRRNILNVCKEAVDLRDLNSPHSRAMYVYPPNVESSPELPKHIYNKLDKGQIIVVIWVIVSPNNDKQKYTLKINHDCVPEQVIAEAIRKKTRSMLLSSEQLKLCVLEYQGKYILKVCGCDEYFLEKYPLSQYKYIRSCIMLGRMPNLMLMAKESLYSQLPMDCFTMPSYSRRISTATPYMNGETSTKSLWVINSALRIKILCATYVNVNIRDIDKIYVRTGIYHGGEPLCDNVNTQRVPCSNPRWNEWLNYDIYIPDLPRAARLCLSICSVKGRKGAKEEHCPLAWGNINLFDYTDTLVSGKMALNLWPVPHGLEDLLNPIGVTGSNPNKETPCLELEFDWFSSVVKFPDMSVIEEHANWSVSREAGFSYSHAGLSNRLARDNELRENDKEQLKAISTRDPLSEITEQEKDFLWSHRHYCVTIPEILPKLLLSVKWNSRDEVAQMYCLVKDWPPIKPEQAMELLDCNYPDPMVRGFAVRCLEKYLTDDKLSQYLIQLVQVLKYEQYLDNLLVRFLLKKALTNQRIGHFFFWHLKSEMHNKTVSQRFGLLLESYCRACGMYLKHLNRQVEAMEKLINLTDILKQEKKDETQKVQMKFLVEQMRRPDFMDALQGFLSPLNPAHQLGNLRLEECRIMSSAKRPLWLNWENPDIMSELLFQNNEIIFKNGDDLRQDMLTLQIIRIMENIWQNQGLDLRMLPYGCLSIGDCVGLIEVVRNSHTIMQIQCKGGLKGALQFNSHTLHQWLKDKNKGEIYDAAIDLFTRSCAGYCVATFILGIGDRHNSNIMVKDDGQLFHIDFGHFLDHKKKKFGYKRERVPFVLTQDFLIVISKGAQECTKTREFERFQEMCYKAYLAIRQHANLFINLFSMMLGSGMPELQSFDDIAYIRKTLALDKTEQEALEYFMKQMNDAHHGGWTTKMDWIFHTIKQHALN
Rule: IC50 below 20 µM gives t, anything at or above gives f.

compoundSmiles	classAssignment
C[C@H](N)CC(=O)N1CCN(c2nc(N3CCOCC3)nc(-n3c(C(F)F)nc4ccccc43)n2)CC1	t
N[C@H](CC(=O)N1CCN(c2nc(N3CCOCC3)nc(-n3c(C(F)F)nc4ccccc43)n2)CC1)Cc1ccccc1	f
N[C@H](CC(=O)N1CCN(c2nc(-c3cccc(O)c3)nc(N3CCOCC3)n2)CC1)Cc1ccccc1	f
O=C(C1CCNCC1)N1CCN(c2nc(-c3cccc(O)c3)nc(N3CCOCC3)n2)CC1	t
N[C@@H](Cc1ccccc1)C(=O)N1CCN(c2nc(-c3cccc(O)c3)nc(N3CCOCC3)n2)CC1	t

Origin of values: the Kinase Knowledgebase extract (Sharma et al. 2016)
